# Protocol details: amyloid nucleation score (Sup35N fusion, yeast selection) (log enrichment); library NNK3; higher = more nucleation; inactive = no reads after selection;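 note: zero at mode of non-aggregating sequences after 7 days selection at 30°C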

{"columns": ["Substance", "amyloid nucleation score"],
 "data": [
  ["LSLRCEFSSASSGCTSGQRR", "inactive"],
  ["RWFLSWWIYFEVKPNDNSFF", "inactive"],
  ["RIRMSCYLIVYIGIACGYIS", "inactive"],
  ["SSKMLTLMWMVGPPLSTDGS", "inactive"],
  ["CDEVLTDKLVWGREFILWSD", "inactive"],
  ["KVKRFY", 1.17],
  ["FTSGTMVFTRLFRSNQQWWS", 1.53],
  ["TLWMGF", "inactive"],
  ["LYSLFVMFLSVKVWFIVFM", "inactive"],
  ["TSSWYFILDVHCGSEGNSEA", 0.438],
  ["LEMTSCTNLLHKRELVSWHR", "inactive"],
  ["DPLLLNRFGNCMLTLWVIVR", "inactive"],
  ["RSDSWLIYSSPINMM", "inactive"],
  ["ADCNWVNNVMSVKGLMSVVM", "inactive"],
  ["CYIGCNLEILNRRDKPFIIR", "inactive"],
  ["KWYRWCMYADDIESHLFGAL", "inactive"],
  ["SRWIGYSFSGGSGGFVGRKA", "inactive"],
  ["CPTVMAYGKTGG", 0.934],
  ["DITRGCGVKDRKVVPASGLA", "inactive"],
  ["KLNSGEVFWQDTL", "inactive"],
  ["FLINPFVWFNNYSFTAF", 0.929],
  ["DMKLPVCSKMPLFMLVIKFK", "inactive"],
  ["FIDNRGSDSSTICCYNYAAQ", 0.407],
  ["FDFWEDRVCPIYNCLGCGKL", "inactive"],
  ["VLFINACYPLIISYQ", 1.97],
  ["SLTSWGRMMSWVPCSKELRQ", "inactive"],
  ["YFVTTVKVEALFQ", -0.23],
  ["GQWLYGWTRYVGPTI", "inactive"],
  ["SVNKAWHSRLIVVLYNRLTG", 0.082],
  ["IAFEVY", "inactive"],
  ["MFRVSWFLISGLLRSVAWNG", "inactive"]
]}

Provenance of the data: the supplement of paper PMC12042874
